The measured values listed here are drawn from ChEMBL document CHEMBL4825684.

Biological target: Prostaglandin G/H synthase 2 (Homo sapiens, UniProt P35354)
Sequence (P35354 whole entry): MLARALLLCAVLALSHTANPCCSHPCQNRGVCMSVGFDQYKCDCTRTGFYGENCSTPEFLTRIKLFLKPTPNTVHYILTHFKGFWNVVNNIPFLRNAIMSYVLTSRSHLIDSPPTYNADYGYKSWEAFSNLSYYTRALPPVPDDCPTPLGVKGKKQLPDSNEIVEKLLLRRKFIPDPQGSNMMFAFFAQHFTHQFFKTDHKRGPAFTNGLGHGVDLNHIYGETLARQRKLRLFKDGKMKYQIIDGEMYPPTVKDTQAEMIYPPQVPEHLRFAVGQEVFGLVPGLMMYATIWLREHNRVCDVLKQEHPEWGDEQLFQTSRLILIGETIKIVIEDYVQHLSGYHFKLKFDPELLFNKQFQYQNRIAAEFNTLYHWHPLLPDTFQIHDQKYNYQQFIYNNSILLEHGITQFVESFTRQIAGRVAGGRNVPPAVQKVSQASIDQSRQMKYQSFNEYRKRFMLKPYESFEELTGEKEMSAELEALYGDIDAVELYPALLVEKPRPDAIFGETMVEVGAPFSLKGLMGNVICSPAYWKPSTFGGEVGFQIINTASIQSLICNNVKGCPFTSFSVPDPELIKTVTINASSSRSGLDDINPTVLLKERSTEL
Value type: IC50 (µM)

Use these answered entries as a reference point.
# input Reported IC50, compound "O=C(NCCc1c[nH]c2ccccc12)c1ccccc1Nc1ccc(Cl)cc1" : ____
# output 3.98

# input Reported IC50, compound "Nc1ccccc1Nc1ccccc1C(=O)NCCc1c[nH]c2ccccc12" : ____
# output 1.21

# input Reported IC50, compound "COc1cc(Nc2ccccc2C(=O)NCCc2c[nH]c3ccccc23)cc(OC)c1OC" : ____
# output 8.29

(P) Cc1cncc(Nc2ccccc2C(=O)NCCc2c[nH]c3ccccc23)c1
(Q) O=C(NCCc1c[nH]c2ccccc12)c1ccccc1Nc1cccnc1Cl
# input Larger number for IC50: P , or Q ? Kindly state the label of the option you pick.
# output P

----------
tested on: U-251; assay: Antiproliferative activity against human U-251 cells assessed as growth inhibition incubated for 72 hrs by CCK-8 assay; type: functional, cell-based; conditions: U-251, 72 h
pIC50: −log10 of the molar value.
Value type: pIC50

# input Reported pIC50, molecule "O=C(NCCc1c[nH]c2ccccc12)c1ccccc1Nc1ccc(F)cc1" : ____
# output 4.89

# input Reported pIC50, molecule "O=C(NCCc1c[nH]c2ccccc12)c1ccccc1Nc1cncc(Br)c1" : ____
# output 4.60

# input Reported pIC50, molecule "CCCCc1ccc(Nc2ccccc2C(=O)NCCc2c[nH]c3ccccc23)cc1" : ____
# output 4.74

# input Reported pIC50, molecule "COc1ccc(Nc2ccccc2C(=O)NCCc2c[nH]c3ccccc23)cc1" : ____
# output 4.49

(A) O=C(NCCc1c[nH]c2ccccc12)c1ccccc1Nc1ccccc1I
(B) Cc1ccc(Nc2ccccc2C(=O)NCCc2c[nH]c3ccccc23)cn1
# input Of A versus B , which is the one with smaller reported pIC50? Kindly state the label of the option you pick.
# output A
(A: 4.48, B: 4.75)

(a) Cc1ncccc1Nc1ccccc1C(=O)NCCc1c[nH]c2ccccc12
(b) Cc1ccc(Nc2ccccc2C(=O)NCCc2c[nH]c3ccccc23)cc1
# input Of a versus b , which is the one with smaller reported pIC50? Kindly state the label of the option you pick.
# output a

----------
tested on: U-251; experiment: Antiproliferative activity against human U-251 cells assessed as growth inhibition incubated for 72 hrs by CCK-8 assay; assay type: functional, cell-based; conditions: U-251, 72 h
pIC50: −log10 of the molar value.
Value type: pIC50

Use these answered entries as a reference point.
# input Reported pIC50, molecule "O=C(NCCc1c[nH]c2ccccc12)c1ccccc1Nc1ccc(C(F)(F)F)cc1" : ____
# output 4.76

# input Reported pIC50, molecule "O=C(NCCc1c[nH]c2ccccc12)c1ccccc1Nc1ccccc1Cl" : ____
# output 4.83

# input Reported pIC50, molecule "O=C(NCCc1c[nH]c2ccccc12)c1ccccc1Nc1ccccc1Br" : ____
# output 4.67

(P) Cc1ccccc1Nc1ccccc1C(=O)NCCc1c[nH]c2ccccc12
(Q) Cc1cccc(Nc2ccccc2C(=O)NCCc2c[nH]c3ccccc23)c1
# input Of P versus Q , which is the one with smaller reported pIC50? Kindly state the label of the option you pick.
# output P
(P: 4.52, Q: 4.88)

----------
assay: AUC (0 to t) in Sprague-Dawley rat at 60 mg/kg, ip measured up to 24 hrs by LC-MS analysis; format: ADME, organism-based; design: route intraperitoneal, dose 60 mg/kg, time <=24; conditions: in vivo
Value type: AUC(0-t) at 24 h (ng·h/mL)
Give the quantity in ng·h/mL, number only.

# input Reported AUC(0-t) at 24 h, molecule "COc1cc(Nc2ccccc2C(=O)NCCc2c[nH]c3ccccc23)cc(OC)c1OC" : ____
# output 7330

----------
assay: Cmax in Sprague-Dawley rat at 60 mg/kg, ip measured up to 24 hrs by LC-MS analysis; format: ADME, organism-based; parameters: route intraperitoneal, dose 60 mg/kg, time <=24; settings: in vivo
Value type: Cmax (ng/mL)
Give the quantity in ng/mL, number only.

# input Reported Cmax, molecule "COc1cc(Nc2ccccc2C(=O)NCCc2c[nH]c3ccccc23)cc(OC)c1OC" : ____
# output 1150

----------
system: U-87 MG; assay: Antiproliferative activity against human U-87 MG cells assessed as growth inhibition incubated for 72 hrs by CCK-8 assay; type: functional, cell-based, U-87MG ATCC
Below, each of the compounds is paired with its reported IC50 value.

Use these answered entries as a reference point.
# input Reported IC50, compound "Cc1ccc(-c2cc(C(F)(F)F)nn2-c2ccc(S(N)(=O)=O)cc2)cc1" : ____
# output > 40 µM

# input Reported IC50, compound "Nc1ccccc1Nc1ccccc1C(=O)NCCc1c[nH]c2ccccc12" : ____
# output > 40 µM

# input Reported IC50, compound "O=C(NCCc1c[nH]c2ccccc12)c1ccccc1Nc1ccc(C(F)(F)F)cc1" : ____
# output 35.7 µM

Further cases:
# input Reported IC50, compound "O=C(NCCc1c[nH]c2ccccc12)c1ccccc1Nc1ccc(F)cc1" : ____
# output > 40 µM

# input Reported IC50, compound "O=C(NCCc1c[nH]c2ccccc12)c1ccccc1Nc1cccnc1" : ____
# output > 40 µM

# input Reported IC50, compound "O=C(NCCc1c[nH]c2ccccc12)c1ccccc1Nc1cccc2cccnc12" : ____
# output > 40 µM

# input Reported IC50, compound "O=C(NCCc1c[nH]c2ccccc12)c1ccccc1Nc1ccc(Cl)cc1" : ____
# output > 40 µM

# input Reported IC50, compound "Cc1ccc(Nc2ccccc2C(=O)NCCc2c[nH]c3ccccc23)cn1" : ____
# output > 40 µM

# input Reported IC50, compound "CN(C)c1ccc(Nc2ccccc2C(=O)NCCc2c[nH]c3ccccc23)cc1" : ____
# output > 40 µM

# input Reported IC50, compound "Cc1cncc(Nc2ccccc2C(=O)NCCc2c[nH]c3ccccc23)c1" : ____
# output > 40 µM

# input Reported IC50, compound "O=C(NCCc1c[nH]c2ccccc12)c1ccccc1Nc1ccccc1F" : ____
# output > 40 µM

# input Reported IC50, compound "O=C(NCCc1c[nH]c2ccccc12)c1ccccc1Nc1cccc(Cl)c1" : ____
# output > 40 µM

# input Reported IC50, compound "O=C(NCCc1c[nH]c2ccccc12)c1ccccc1Nc1ccccc1Cl" : ____
# output > 40 µM

# input Reported IC50, compound "Cc1ccccc1Nc1ccccc1C(=O)NCCc1c[nH]c2ccccc12" : ____
# output > 40 µM

# input Reported IC50, compound "O=C(NCCc1c[nH]c2ccccc12)c1ccccc1Nc1ccc2nccnc2c1" : ____
# output > 40 µM

# input Reported IC50, compound "O=C(NCCc1c[nH]c2ccccc12)c1ccccc1Nc1ccc(Br)cc1" : ____
# output > 40 µM

# input Reported IC50, compound "Cc1ccc(Nc2ccccc2C(=O)NCCc2c[nH]c3ccccc23)cc1" : ____
# output 34.7 µM

# input Reported IC50, compound "O=C(NCCc1c[nH]c2ccccc12)c1ccccc1Nc1cccnc1Cl" : ____
# output > 40 µM

# input Reported IC50, compound "CCCCc1ccc(Nc2ccccc2C(=O)NCCc2c[nH]c3ccccc23)cc1" : ____
# output > 40 µM

# input Reported IC50, compound "O=C(NCCc1c[nH]c2ccccc12)c1ccccc1Nc1cncc(Br)c1" : ____
# output > 40 µM

----------
system: U-87 MG; experiment: Antiproliferative activity against human U-87 MG cells assessed as growth inhibition incubated for 72 hrs by CCK-8 assay; format: functional, cell-based, U-87MG ATCC
pIC50: −log10 of the molar value.
Value type: pIC50

Use these answered entries as a reference point.
# input Reported pIC50, compound "COc1ccc2[nH]cc(CCNC(C)=O)c2c1" : ____
# output < 4.40

# input Reported pIC50, compound "O=C(NCCc1c[nH]c2ccccc12)c1ccccc1Nc1ccccc1I" : ____
# output < 4.40

# input Reported pIC50, compound "O=C(NCCc1c[nH]c2ccccc12)c1ccccc1Nc1ccccc1Br" : ____
# output < 4.40

# input Reported pIC50, compound "O=C(NCCc1c[nH]c2ccccc12)c1ccccc1Nc1cccc(Br)c1" : ____
# output < 4.40

# input Reported pIC50, compound "Cc1ncccc1Nc1ccccc1C(=O)NCCc1c[nH]c2ccccc12" : ____
# output < 4.40

--- query ---
# input Reported pIC50, compound "O=C(NCCc1c[nH]c2ccccc12)c1ccccc1Nc1cccc(F)c1" : ____
# output < 4.40
